# assay.method.text: clinical
# test.parameters: human, plasma, oral, 8 mg, Tmax, 8 mg q.d., cycle 1 Day 1, median
quantity.kind: Tmax (h)
Lab book: enter the figure in h, no units written.

# get_value(readout='Tmax', item= C=CC(=O)N1CC[C@H](n2nc(C#Cc3cc(OC)cc(OC)c3)c3c(N)ncnc32)C1 )
2

====

# assay.method.text: clinical
# test.parameters: human, plasma, oral, 120 mg, AUC0–last, 120 mg t.i.w., cycle 1 Day 1, mean
quantity.kind: AUC(0-t) (ng·h/mL)
Answer format: numeric, ng·h/mL implied, no suffix.

What AUC(0-t) value was documented for this molecule, C=CC(=O)N1CC[C@H](n2nc(C#Cc3cc(OC)cc(OC)c3)c3c(N)ncnc32)C1 [futibatinib] ?
6640
